- Target: human AChE (Homo sapiens)
- Sequence (P22303 32-614): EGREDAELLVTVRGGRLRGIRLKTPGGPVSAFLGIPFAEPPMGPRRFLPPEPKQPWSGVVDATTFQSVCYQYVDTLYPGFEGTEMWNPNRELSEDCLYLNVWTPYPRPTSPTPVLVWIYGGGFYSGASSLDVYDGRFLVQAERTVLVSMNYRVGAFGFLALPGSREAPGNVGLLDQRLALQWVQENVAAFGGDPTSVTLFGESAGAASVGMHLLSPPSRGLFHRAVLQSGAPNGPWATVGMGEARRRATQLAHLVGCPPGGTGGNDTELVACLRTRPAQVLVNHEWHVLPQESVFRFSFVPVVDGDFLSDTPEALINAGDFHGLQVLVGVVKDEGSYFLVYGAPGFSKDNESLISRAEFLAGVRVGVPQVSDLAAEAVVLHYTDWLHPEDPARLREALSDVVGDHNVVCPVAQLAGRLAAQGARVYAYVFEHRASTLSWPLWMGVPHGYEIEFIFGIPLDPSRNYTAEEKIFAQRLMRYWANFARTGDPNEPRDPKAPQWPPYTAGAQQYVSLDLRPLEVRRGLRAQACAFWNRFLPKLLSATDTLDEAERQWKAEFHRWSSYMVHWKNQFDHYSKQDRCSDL
Recorded Endpoint: IC50

Missing value: IC50, human AChE (Homo sapiens), entry CO[P@]1(=O)OC[C@H]2COC(=O)C2=C(C)O1 . Fill in?
~40 nM
